Cited source: patent US6538029B1

- experimental_system: PDE10 from 786-O (Homo sapiens)
- procedure_text: Inhibition and kinetics of PDE10 from 786-O (pooled fractions of the center peak)
- Assay type: biochemical
- condition_description: IC50 on PDE10 from 786-O (inhibition of cGMP PDE activity), pooled center-peak fractions; FIG. 10
reported_property: pIC50
Reminder that pIC50 means the negative base-10 logarithm of the concentration expressed in mol/L.

query: Which pIC50 value belongs to COc1cc(/C=C2/C(C)=C(CC(=O)NCc3ccccc3)c3cc(F)ccc32)cc(OC)c1OC [Compound A] ?
result: 7.51

====

- experimental_system: PDE10 from 786-O (Homo sapiens, UniProt Q9Y233)
- Sequence (Q9Y233 290-1055 limits assumed): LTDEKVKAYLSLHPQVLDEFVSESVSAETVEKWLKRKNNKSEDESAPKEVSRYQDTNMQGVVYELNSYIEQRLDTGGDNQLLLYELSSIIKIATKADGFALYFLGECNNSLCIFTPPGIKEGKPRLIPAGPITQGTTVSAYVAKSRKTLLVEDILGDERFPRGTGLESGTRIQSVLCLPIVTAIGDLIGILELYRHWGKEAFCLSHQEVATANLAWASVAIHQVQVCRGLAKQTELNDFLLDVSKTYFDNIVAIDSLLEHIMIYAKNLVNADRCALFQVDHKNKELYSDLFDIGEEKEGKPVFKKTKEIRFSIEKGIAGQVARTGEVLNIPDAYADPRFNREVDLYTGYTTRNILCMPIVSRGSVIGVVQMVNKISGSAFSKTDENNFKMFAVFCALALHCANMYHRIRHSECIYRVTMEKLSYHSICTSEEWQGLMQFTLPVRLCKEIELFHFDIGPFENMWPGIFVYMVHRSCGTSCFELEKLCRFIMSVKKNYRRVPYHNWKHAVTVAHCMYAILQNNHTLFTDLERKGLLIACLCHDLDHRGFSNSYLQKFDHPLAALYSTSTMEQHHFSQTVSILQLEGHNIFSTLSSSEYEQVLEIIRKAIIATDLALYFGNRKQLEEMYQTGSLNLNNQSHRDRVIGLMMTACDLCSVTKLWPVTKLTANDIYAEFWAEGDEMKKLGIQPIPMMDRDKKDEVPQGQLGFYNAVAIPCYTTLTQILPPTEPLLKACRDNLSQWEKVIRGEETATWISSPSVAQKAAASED
- procedure_text: Inhibition and kinetics of PDE10 from 786-O (pooled fractions of the center peak)
- Format: biochemical
- condition_description: read-out: μM IC50s on PDE10 from 786-O, cAMP; cAMP substrate at 0.09 μM; pooled center-peak fractions; table: N = 2 average, EHNA, Milrinone, Rolipram N = 1
- Experimental: Fractions were pooled from a 786-O profile from the center peak. Protein assays were determined using the Bio-Rad DC Protein Assay. A nonlinear regression to the Michalis-Menten equation in Prism was used to determine the Km and Vmax.
reported_property: IC50 (µM)
Report as a plain number; the unit µM is understood.

Reference set, count: 3
# compound, IC50, µM
records = [
    ("CC(C)Cn1c(=O)n(C)c(=O)c2[nH]cnc21 [IBMX]", 4.5),
    ("O=C(O)C1CCN(c2nc(NCc3ccc4c(c3)OCO4)c3cc(Cl)ccc3n2)CC1 [Example E4021]", 2.8),
    ("Nc1nc2c(ncn2[C@@H]2O[C@@H]3COP(=O)(O)O[C@H]3[C@H]2O)c(=O)[nH]1 [cGMP, cyclic 3′,5′-guanosine monophosphate]", 5.2),
]

Pending compound:
query: Which IC50 value belongs to CCCCCC[C@@H]([C@@H](C)O)n1cnc2c(N)ncnc21 (racemic) [EHNA] ?
result: 60

====

- experimental_system: PDE10 from 786-O (Homo sapiens)
- procedure_text: Inhibition and kinetics of PDE10 from 786-O (pooled fractions of the center peak)
- Assay type: biochemical
- condition_description: read-out: μM IC50s on PDE10 from 786-O, cGMP; cGMP substrate at 5.5 μM; pooled center-peak fractions; table: N = 2 average, EHNA, Milrinone, Rolipram N = 1
reported_property: IC50

Reference set, count: 2
# molecule, experimental_value
rows = [
    ("O=C(O)C1CCN(c2nc(NCc3ccc4c(c3)OCO4)c3cc(Cl)ccc3n2)CC1 [Example E4021]", "3.2 µM"),
    ("CCCCCC[C@@H]([C@@H](C)O)n1cnc2c(N)ncnc21 (racemic) [EHNA]", "46 µM"),
]

query: Notebook entry, PDE10 from 786-O (Homo sapiens) assay: IC50 of CC(C)Cn1c(=O)n(C)c(=O)c2[nH]cnc21 [IBMX] = ?
result: 6.3 µM

====

- experimental_system: UniProt:Q9Y233
- procedure_text: Inhibition and kinetics of PDE10 from 786-O (pooled fractions of the center peak)
- Assay type: biochemical
- condition_description: μM IC50s on PDE10 from 786-O, cGMP, cGMP substrate at 5.5 μM; pooled center-peak fractions; table: N = 2 average, EHNA, Milrinone, Rolipram N = 1
# IC50 annotations
Report as a plain number; the unit µM is understood.

# compound, IC50 [µM]
data = [
    ("CCOC(=O)C1=C[C@]2(CC)CCCN3CCc4c(n1c1ccccc41)[C@@H]32", 45),
    ("CCCOc1ccccc1-c1nc2nn[nH]c2c(=O)[nH]1", 17),
]

query: Which IC50 value belongs to Cc1[nH]c(=O)c(C#N)cc1-c1ccncc1 ?
result: 103
